System under test: human ROR1 (Homo sapiens, UniProt Q01973)
Construct: host or cells: HEK 293T cells, Tet-on system induced with doxycycline
Sequence (Q01973 30-937): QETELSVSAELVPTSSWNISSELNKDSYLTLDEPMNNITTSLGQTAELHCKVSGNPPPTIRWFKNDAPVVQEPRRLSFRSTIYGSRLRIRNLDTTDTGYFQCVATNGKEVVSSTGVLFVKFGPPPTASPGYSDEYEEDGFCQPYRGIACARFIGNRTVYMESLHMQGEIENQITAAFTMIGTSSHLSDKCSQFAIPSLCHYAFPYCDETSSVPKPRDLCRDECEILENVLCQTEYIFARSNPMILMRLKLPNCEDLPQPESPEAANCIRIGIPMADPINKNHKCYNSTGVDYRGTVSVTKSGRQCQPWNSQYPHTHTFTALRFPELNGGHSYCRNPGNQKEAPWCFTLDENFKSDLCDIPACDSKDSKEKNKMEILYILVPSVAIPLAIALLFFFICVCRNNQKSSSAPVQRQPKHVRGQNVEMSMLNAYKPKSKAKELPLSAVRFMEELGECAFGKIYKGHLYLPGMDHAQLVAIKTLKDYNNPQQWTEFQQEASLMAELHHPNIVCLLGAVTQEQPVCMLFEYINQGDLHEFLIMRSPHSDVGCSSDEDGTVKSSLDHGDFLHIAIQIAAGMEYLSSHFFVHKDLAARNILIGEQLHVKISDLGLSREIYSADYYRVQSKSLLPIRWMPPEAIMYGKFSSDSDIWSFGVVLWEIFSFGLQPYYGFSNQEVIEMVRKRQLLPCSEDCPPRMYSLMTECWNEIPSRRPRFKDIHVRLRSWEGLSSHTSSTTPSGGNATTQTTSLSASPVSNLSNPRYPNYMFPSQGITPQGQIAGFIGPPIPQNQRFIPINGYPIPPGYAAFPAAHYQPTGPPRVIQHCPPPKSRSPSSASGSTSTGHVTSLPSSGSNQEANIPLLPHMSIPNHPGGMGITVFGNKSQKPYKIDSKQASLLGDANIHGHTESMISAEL
Protocol notes: ROR1 high content cell-based binding assay
Conditions used: read-out: ROR1 Binding 293T Human HC Cell Based Assay IC50
Positions of bridges follow the written chain, without caps; N, C: chain ends. Non-standard residues stand in square brackets, D forms with d. Residues, ends and D or L forms follow the SMILES beside them. NMeF = CN[C@@H](Cc1ccccc1)C(=O)O
Measured pIC50 by item
When answering, recall that pIC50 equals minus log10 of the concentration in mol/L, and write that number alone.

CC(C)C[C@@H]1NC(=O)[C@H](Cc2ccc(O)cc2)NC(=O)[C@H](Cc2ccccc2)NC(=O)CSC[C@@H](C(=O)NCC(N)=O)NC(=O)[C@H](CC(C)C)NC(=O)[C@H](Cc2ccccc2)N(C)C(=O)[C@H](Cc2ccc(O)cc2)NC(=O)[C@H](Cc2c[nH]c3ccccc23)NC(=O)CNC(=O)[C@H](CC(=O)O)NC(=O)[C@H](Cc2ccc(O)cc2)NC(=O)[C@H](C(C)C)NC1=O [Example 1017] ({CH2CO}-FYLVYDGWY[NMeF]LCG-NH2; thioether N-12) ... 7.85
CC(C)C[C@@H]1NC(=O)[C@@H](CCC(N)=O)NC(=O)[C@H](Cc2ccccc2)N(C)C(=O)CNC(=O)[C@H](Cc2ccc(O)cc2)NC(=O)[C@H](Cc2ccccc2)NC(=O)CSC[C@@H](C(N)=O)NC(=O)[C@H](Cc2c[nH]c3ccccc23)NC(=O)[C@H](Cc2ccc(O)cc2)NC1=O [Example 1122] ({CH2CO}-FYG[NMeF][dQ]LYWC-NH2; thioether N-9) ... 6.25
CC(C)C[C@@H]1NC(=O)[C@H](Cc2ccccc2)NC(=O)CSC[C@@H](C(=O)NCC(N)=O)NC(=O)[C@H](C(C)C)NC(=O)[C@H](Cc2ccccc2)N(C)C(=O)[C@H](CC(C)C)NC(=O)[C@H](Cc2c[nH]c3ccccc23)NC(=O)CN(C)C(=O)CNC(=O)[C@H](C(C)C)NC(=O)[C@H](Cc2c[nH]c3ccccc23)NC1=O ... 7.41
CC(C)C[C@@H]1NC(=O)[C@H](CC(N)=O)NC(=O)[C@H](Cc2ccccc2)N(C)C(=O)CNC(=O)[C@H](Cc2ccc(O)cc2)NC(=O)[C@H](Cc2ccccc2)NC(=O)CSC[C@@H](C(=O)NCC(N)=O)NC(=O)[C@H](Cc2c[nH]c3ccccc23)NC(=O)[C@H](Cc2ccc(O)cc2)NC1=O [Example 1118] ({CH2CO}-FYG[NMeF]NLYWCG-NH2; thioether N-9) ... 6.82
CC(C)C[C@@H]1NC(=O)[C@H](Cc2ccccc2)NC(=O)[C@H](Cc2ccc(O)cc2)NC(=O)[C@H](Cc2c[nH]c3ccccc23)NC(=O)CNC(=O)[C@H](CO)NC(=O)[C@H](Cc2ccc(O)cc2)NC(=O)[C@H](C(C)C)NC(=O)[C@H](CC(C)C)NC(=O)[C@H](Cc2ccc(O)cc2)NC(=O)[C@H](Cc2ccccc2)NC(=O)CSC[C@@H](C(=O)NCC(N)=O)NC1=O [Example 1070] ({CH2CO}-FYLVYSGWYFLCG-NH2; thioether N-12) ... 7.19

Could you now look at the following compound, please?
In: Given the entry CC(C)C[C@@H]1NC(=O)[C@H](Cc2ccc(O)cc2)NC(=O)[C@H](Cc2ccccc2)NC(=O)CSC[C@@H](C(=O)NCC(N)=O)NC(=O)[C@H](CC(C)C)NC(=O)[C@H](Cc2ccccc2)N(C)C(=O)[C@H](Cc2ccc(O)cc2)NC(=O)[C@H](Cc2c[nH]c3ccccc23)NC(=O)CNC(=O)[C@H](Cc2ccc(O)cc2)NC(=O)[C@H](Cc2ccc(O)cc2)NC(=O)[C@H](C(C)C)NC1=O [Example 1045] ({CH2CO}-FYLVYYGWY[NMeF]LCG-NH2; thioether N-12) , what pIC50 was observed with human ROR1 (Homo sapiens, UniProt Q01973)?
Out: 8.05

Numbers sourced from patent US20240116988A1.
